molecular target: UniProt O14842; assay: IP1 accumulation measurements using the IPOne assay system in 1321N1 cells stably expressing human GPR40 receptor; conditions: 1321N1 cells expressing human GPR40, 1 hour stimulation at 37° C., Table 2
Sequence (O14842 whole entry): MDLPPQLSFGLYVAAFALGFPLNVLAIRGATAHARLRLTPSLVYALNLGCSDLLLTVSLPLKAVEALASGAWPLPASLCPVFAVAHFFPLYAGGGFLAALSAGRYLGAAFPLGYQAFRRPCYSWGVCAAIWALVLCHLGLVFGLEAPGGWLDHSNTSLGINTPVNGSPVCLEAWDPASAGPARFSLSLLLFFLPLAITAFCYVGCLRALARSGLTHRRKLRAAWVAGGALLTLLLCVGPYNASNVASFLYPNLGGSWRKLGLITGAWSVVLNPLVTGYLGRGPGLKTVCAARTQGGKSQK
pEC50: −log10 of the molar value.
quantityKind: pEC50

INSERT INTO assay_data (compound, quantitykind, measvalue) VALUES
  ('CS(=O)(=O)c1ccc(Oc2ccc(F)c3c2CC[C@H]3Oc2ccc([C@H]3C[C@@H]3C(=O)O)cc2)cc1 [Example 38]', 'pEC50', 7.57),
  ('CC(C)c1ccn(-c2ccc(Oc3ccc(F)c4c3CC[C@H]4Oc3ccc([C@H]4C[C@@H]4C(=O)O)cc3)cc2)n1 [Example 30]', 'pEC50', 8.10),
  ('O=C(O)[C@H]1C[C@@H]1c1ccc(O[C@@H]2CCc3c(Oc4ccc(OCCN5CCOCC5)cc4)ccc(F)c32)cc1 [Example 14]', 'pEC50', 8.52),
  ('O=C(O)[C@H]1C[C@@H]1c1ccc(O[C@@H]2CCc3c(Oc4ccc(OCCO)cc4)ccc(F)c32)cc1 [Example 10]', 'pEC50', 8.15),
  ('Cc1cc(Oc2ccc(F)c3c2CC[C@H]3Oc2ccc([C@H]3C[C@@H]3C(=O)O)cc2)cc(C)c1OCCC(C)(C)O [Example 31]', 'pEC50', 8.05),
  ('Cc1cc(C#N)cc(C)c1S(=O)(=O)c1cccc2c1CC[C@H]2Oc1ccc([C@H]2C[C@@H]2C(=O)O)cc1 [Example 41]', 'pEC50', 7.92),
  ('CS(=O)(=O)CCCOc1ccc(Oc2ccc(F)c3c2CC[C@H]3Oc2ccc([C@H]3C[C@@H]3C(=O)O)cc2)cc1 [Example 7]', 'pEC50', 8.40),
  ('COc1cc(Oc2ccc(F)c3c2CC[C@H]3Oc2ccc([C@H]3C[C@@H]3C(=O)O)cc2)ccc1C#N [Example 27]', 'pEC50', 8.70),
  ('O=C(O)[C@H]1C[C@@H]1c1ccc(O[C@@H]2CCc3c(Oc4ccccc4)ccc(F)c32)cc1 [Example 45]', 'pEC50', 8.70),
  ('Cc1cc(C#N)ccc1Oc1ccc(F)c2c1CC[C@H]2Oc1ccc([C@H]2C[C@@H]2C(=O)O)cc1 [Example 25]', 'pEC50', 8.70),
  ('N#Cc1ccc(Oc2ccc(F)c3c2CC[C@H]3Oc2ccc([C@H]3C[C@@H]3C(=O)O)cc2)cc1 [Example 24]', 'pEC50', 8.70),
  ('O=C(O)C1CC1c1ccc(O[C@@H]2CCc3c2cccc3[S+]([O-])c2ccccc2)cc1 (stereo partly shown) [Example 44]', 'pEC50', 6.71),
  ('CNC(=O)c1ccc(Oc2ccc(F)c3c2CC[C@H]3Oc2ccc([C@H]3C[C@@H]3C(=O)O)cc2)cc1 [Example 17]', 'pEC50', 8.05),
  ('CN(C)C(=O)c1ccc(Oc2ccc(F)c3c2CC[C@H]3Oc2ccc([C@H]3C[C@@H]3C(=O)O)cc2)cc1 [Example 20]', 'pEC50', 7.96),
  ('CCNC(=O)c1ccc(Oc2ccc(F)c3c2CC[C@H]3Oc2ccc([C@H]3C[C@@H]3C(=O)O)cc2)cc1 [Example 23]', 'pEC50', 7.92),
  ('COCCOc1ccc(Oc2ccc(F)c3c2CC[C@H]3Oc2ccc([C@H]3C[C@@H]3C(=O)O)cc2)cc1F [Example 13]', 'pEC50', 8.10),
  ('COc1ccc(Cc2c(C#N)ccc3c2CC[C@H]3Oc2ccc([C@H]3C[C@@H]3C(=O)O)cc2)cn1 [Example 46]', 'pEC50', 8.10),
  ('O=C(O)[C@H]1C[C@@H]1c1ccc(O[C@@H]2CCc3c(Oc4ccc(OCc5ccccc5)cc4)ccc(F)c32)cc1 [Example 1]', 'pEC50', 8.22),
  ('O=C(O)[C@H]1C[C@@H]1c1ccc(O[C@@H]2CCc3c(Oc4ccc(OC5CCOCC5)cc4)ccc(F)c32)cc1 [Example 6]', 'pEC50', 8.70),
  ('COCCOc1ccc(Oc2ccc(F)c3c2CC[C@H]3Oc2ccc([C@H]3C[C@@H]3C(=O)O)cc2)cc1 [Example 8]', 'pEC50', 8.30),
  ('CC(C)(O)COc1ccc(Oc2ccc(F)c3c2CC[C@H]3Oc2ccc([C@H]3C[C@@H]3C(=O)O)cc2)cc1 [Example 9]', 'pEC50', 8.30),
  ('O=C(O)[C@H]1C[C@@H]1c1ccc(O[C@@H]2CCc3c(Oc4ccc(OC5CCOCC5)c(F)c4)ccc(F)c32)cc1 [Example 12]', 'pEC50', 8.40),
  ('CS(=O)(=O)CCCOc1ccc(Oc2ccc(F)c3c2CC[C@H]3Oc2ccc([C@H]3C[C@@H]3C(=O)O)cc2)cc1F [Example 15]', 'pEC50', 8.10),
  ('Cc1noc(-c2ccc(Oc3ccc(F)c4c3CC[C@H]4Oc3ccc([C@H]4C[C@@H]4C(=O)O)cc3)cc2)n1 [Example 32]', 'pEC50', 8.40),
  ('CC(C)(O)CCOc1ccc(Oc2ccc(F)c3c2CC[C@H]3Oc2ccc([C@H]3C[C@@H]3C(=O)O)cc2)cc1F [Example 11]', 'pEC50', 8.52),
  ('Cc1nc(-c2ccc(Oc3ccc(F)c4c3CC[C@H]4Oc3ccc([C@H]4C[C@@H]4C(=O)O)cc3)cc2)nn1C [Example 33]', 'pEC50', 8.30),
  ('Cc1ccc2cc(Oc3ccc(F)c4c3CC[C@H]4Oc3ccc([C@H]4C[C@@H]4C(=O)O)cc3)ccc2n1 [Example 39]', 'pEC50', 8.22),
  ('N#Cc1ccc(Oc2c(F)cc(F)c3c2CC[C@H]3Oc2ccc([C@H]3C[C@@H]3C(=O)O)cc2)cc1 [Example 28]', 'pEC50', 9.00);
